settings: in methanol, 283.15 K
Parameter Measured: solubility (mole fraction)
Give the value as a plain number.

Task item: Could you tell me which solubility (mole fraction) is on file for CCOc1ccc(OCC)cc1 ?
Reply: 0.00338

###

conditions: in isobutyl acetate, 288.15 K
Parameter Measured: solubility (mole fraction)
Could you keep your reply to the number by itself?

Task item: Look at this molecule and give its reported solubility (mole fraction). CCOc1ccc(OCC)cc1
Reply: 0.0655

###

settings: in n-butyl acetate, 303.15 K
Parameter Measured: solubility (mole fraction)
Quick one: just the number, no unit, thanks!

Task item: State the recorded solubility (mole fraction) for this entry: CCOc1ccc(OCC)cc1
Reply: 0.254

###

settings: in n-propyl acetate, 308.15 K
Parameter Measured: solubility (mole fraction)
Reply: number alone, nothing else.

Task item: Any idea what solubility (mole fraction) was measured for CCOc1ccc(OCC)cc1 ?
Reply: 0.255
